measured_target: mutant CFTR (Homo sapiens, UniProt P13569, DEL508-508)
Sequence (P13569 with tags, fused parts or gaps DEL508-508): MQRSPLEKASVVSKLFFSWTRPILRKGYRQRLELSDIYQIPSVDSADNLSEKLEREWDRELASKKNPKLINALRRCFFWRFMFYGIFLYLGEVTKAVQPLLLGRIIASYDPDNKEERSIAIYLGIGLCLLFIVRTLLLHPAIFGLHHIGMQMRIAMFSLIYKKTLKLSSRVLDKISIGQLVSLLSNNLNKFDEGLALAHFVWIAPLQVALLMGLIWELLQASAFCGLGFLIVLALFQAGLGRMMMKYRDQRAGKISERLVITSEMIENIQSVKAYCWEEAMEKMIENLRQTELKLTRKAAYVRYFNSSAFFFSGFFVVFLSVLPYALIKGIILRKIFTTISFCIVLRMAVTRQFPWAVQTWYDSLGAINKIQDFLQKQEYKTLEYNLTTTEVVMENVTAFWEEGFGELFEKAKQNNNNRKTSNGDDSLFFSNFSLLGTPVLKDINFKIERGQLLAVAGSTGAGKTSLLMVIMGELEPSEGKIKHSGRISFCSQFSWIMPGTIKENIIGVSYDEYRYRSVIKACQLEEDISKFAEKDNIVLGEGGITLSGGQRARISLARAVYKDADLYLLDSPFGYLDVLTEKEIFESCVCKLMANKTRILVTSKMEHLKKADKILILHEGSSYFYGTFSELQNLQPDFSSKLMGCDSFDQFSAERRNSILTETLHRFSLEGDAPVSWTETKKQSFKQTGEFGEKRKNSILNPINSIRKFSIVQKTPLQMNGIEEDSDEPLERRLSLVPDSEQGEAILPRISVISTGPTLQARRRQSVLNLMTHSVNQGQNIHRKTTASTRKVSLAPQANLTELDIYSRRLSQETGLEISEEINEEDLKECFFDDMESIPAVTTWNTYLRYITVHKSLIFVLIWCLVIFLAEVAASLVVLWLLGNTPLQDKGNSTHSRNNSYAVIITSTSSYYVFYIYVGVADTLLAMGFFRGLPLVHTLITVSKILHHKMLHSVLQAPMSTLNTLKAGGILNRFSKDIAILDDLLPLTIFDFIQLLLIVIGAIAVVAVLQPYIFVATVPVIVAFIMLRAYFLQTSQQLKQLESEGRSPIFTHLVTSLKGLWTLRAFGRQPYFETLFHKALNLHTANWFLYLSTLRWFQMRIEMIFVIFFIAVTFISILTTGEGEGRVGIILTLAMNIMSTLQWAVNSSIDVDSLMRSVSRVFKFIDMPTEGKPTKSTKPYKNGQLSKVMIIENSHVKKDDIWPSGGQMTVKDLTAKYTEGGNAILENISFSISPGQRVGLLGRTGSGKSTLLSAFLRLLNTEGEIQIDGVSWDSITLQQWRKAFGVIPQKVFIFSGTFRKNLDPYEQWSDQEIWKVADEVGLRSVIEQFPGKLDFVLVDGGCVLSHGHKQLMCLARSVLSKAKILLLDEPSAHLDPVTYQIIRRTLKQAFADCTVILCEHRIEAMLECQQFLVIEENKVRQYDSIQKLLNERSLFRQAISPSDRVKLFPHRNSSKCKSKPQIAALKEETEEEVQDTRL
assay_summary: Fluorescence (HS-YFP) assay for CFTR activity, corrector assay
conditions: CFBE41o- and FRT cells with stable expression of mutant CFTR, 24 h compound treatment
recorded_endpoint: EC50

Reference set (5 entries):
1. CN(C(=O)c1cccc(-n2nc(C(F)(F)F)c(Cl)c2COC2CC(C(=O)O)C2)c1)c1ccc2c(c1)OC(F)(F)O2 (centres unmarked) ... < 1000 nM
2. Cc1nn(-c2cccc(C(=O)N(C)c3ccc4c(c3)OCO4)c2)c(COc2ccccc2)c1Cl ... < 1000 nM
3. Cc1nn(-c2cccc(C(=O)N(C)c3ccc4c(c3)CCCC4)c2)c(C)c1Cl ... > 2000 nM
4. Cc1c(Cl)c(C(N)=O)nn1-c1cccc(C(=O)N(C)c2ccc3c(c2)OCO3)c1 ... > 2000 nM
5. CCOC(=O)c1c(C)nn(-c2cccc(C(=O)N(C)c3ccc4c(c3)OCO4)c2)c1C ... > 2000 nM

Note to self: EC50 recorded for Cc1nn(-c2cccc(C(=O)N(C)c3ccc4c(c3)OCO4)c2)c(C)c1C(N)=O was > 2000 nM

Value of EC50 reported for the molecule CN(C(=O)c1cccc(-n2nc(-c3cccnc3)cc2C(F)(F)F)c1)c1ccc2c(c1)OCO2 is 1000 to 2000 nM

Value of EC50 reported for the molecule Cc1nn(-c2cccc(C(=O)N(C)c3ccc4c(c3)OCO4)c2)c(C(=O)OC(C)(C)C)c1Cl is < 1000 nM

* * *

This listing pairs compounds with measured pEC50.
measured_target: mutant CFTR (Homo sapiens, UniProt P13569, DEL508-508)
Construct: expressed in transfected cells
assay_summary: Fluorescence (HS-YFP) assay for CFTR activity, corrector assay
Type: cell-based
conditions: CFBE41o- and FRT cells with stable expression of mutant CFTR, 24 h compound treatment
pEC50: −log10 of the molar value.

Recorded pEC50, per entry:
1) CN(C(=O)c1cccc(-n2nc(C(F)(F)F)cc2OCCc2ccccc2)c1)c1ccc2c(c1)OCO2 ... > 6.00
2) Cc1c(C=O)c(C(F)(F)F)nn1-c1cccc(C(=O)N(C)c2ccc3c(c2)OCO3)c1 ... > 6.00
3) CCOC(=O)c1nn(-c2cccc(C(=O)N(C)c3ccc4c(c3)OCO4)c2)c(C)c1Cl ... < 5.70

Reported pEC50 ( Cc1cc(C)n(-c2cccc(C(=O)N(C)c3ccc4c(c3)OCCO4)c2)n1 ) = < 5.70

* * *

measured_target: mutant CFTR (Homo sapiens, UniProt P13569, DEL508-508)
assay_summary: Fluorescence (HS-YFP) assay for CFTR activity, corrector assay
conditions: CFBE41o- and FRT cells with stable expression of mutant CFTR, 24 h compound treatment
recorded_endpoint: EC50

1. CN(C(=O)c1cccc(-n2nc(C(F)(F)F)cc2OCc2ccc(C(=O)O)cc2)c1)c1ccc2c(c1)OCC2 [compound 262] ... < 1000 nM
2. Cc1nc2ccc(N(C)C(=O)c3cccc(-n4nc(C(F)(F)F)c(Cl)c4COc4ccc(C(=O)O)cc4)c3)cc2o1 [compound 233] ... < 1000 nM
3. Cc1nn(-c2cccc(C(=O)N(C)c3ccc4c(c3)OCO4)c2)c(C(F)(F)F)c1Cl [compound 102] ... < 1000 nM
4. Cc1nc2ccc(NC(=O)c3cccc(-n4nc(C)c(Cl)c4C)c3)cc2o1 [Int-045] ... > 2000 nM

For reference, reported EC50 for Cc1nn(-c2cccc(C(=O)N(C)c3ccc4c(c3)OCO4)c2)c(C(=O)O)c1Cl [compound 083] stands at > 2000 nM

// Cc1nn(-c2cccc(C(=O)N(C)c3ccc4c(c3)OCCN4)c2)c(C)c1Cl [compound 036, 2,2,2-trifluoroacetate] : EC50 value = > 2000 nM

Data point: Cc1nn(-c2cccc(C(=O)N(c3ccc4c(c3)OCCO4)C(C)C)c2)c(C)c1Cl [compound 003] ; EC50 = > 2000 nM

* * *

The following molecules are shown together with reported EC50 values.
measured_target: mutant CFTR (Homo sapiens, UniProt P13569, DEL508-508)
assay_summary: Fluorescence (HS-YFP) assay for CFTR activity, corrector assay
conditions: CFBE41o- and FRT cells with stable expression of mutant CFTR, 24 h compound treatment
Protocol: Fluorescence Assay for CFTR Activity Mutant CFTR activity was determined with the functional assay based on the halide-sensitive yellow fluorescent protein, HS-YFP (Galietta et al., FEBS Lett 499: 220-224, 2001). […] For determination of potentiator activity on G551D-CFTR or G1349D-CFTR, cells were directly stimulated with forskolin plus test compound without previous incubation at low temperature. […] Data were normalized to the initial background-subtracted fluorescence. […]

1) Cc1nn(-c2cccc(C(=O)Nc3cccc4c3OC(F)(F)O4)c2)c(C)c1Cl ... 1000 to 2000 nM
2) Cc1c(Cl)c(C(F)(F)F)nn1-c1cccc(C(=O)N(C)c2cc3c(cc2C#N)OCO3)c1 ... < 1000 nM
3) Cc1c(Cl)c(C(F)(F)F)nn1-c1cccc(C(=O)N(C)c2ccc3c(c2)OC(F)(F)O3)c1 ... < 1000 nM
4) CCOc1cc(C(F)(F)F)nn1-c1cccc(C(=O)N(C)c2ccc3c(c2)OCO3)c1 ... < 1000 nM
5) Cc1nc2ccc(NC(=O)c3cccc(-n4nc(C(F)(F)F)c(Cl)c4C)c3)cc2s1 ... < 1000 nM

Field EC50 (entry Cc1nn(-c2cccc(C(=O)N(C)c3ccc4c(c3)OCO4)c2)c(C2CC2)c1Cl ) reads < 1000 nM

The reported EC50 of the molecule [2H]C([2H])([2H])N(C(=O)c1cccc(-n2nc(C(F)(F)F)c(Cl)c2COc2ccc(C(=O)O)cc2)c1)c1ccc2c(c1)OC(F)(F)O2 was < 1000 nM

Entry Cc1ccc(-n2nc(C)c(Cl)c2C)cc1C(=O)N(C)c1ccc2c(c1)OCCO2 — recorded EC50 = > 2000 nM

Looking up Cc1nn(-c2cccc(C(=O)N(C)c3ccc4c(c3)OCO4)c2)c(CO)c1Cl , I found its EC50 recorded as 1000 to 2000 nM

Value of EC50 reported for the molecule COC(=O)C12CC(COc3cc(C(F)(F)F)nn3-c3cccc(C(=O)N(C)c4ccc5c(c4)OC(F)(F)O5)c3)(C1)C2 is < 1000 nM

Record Cc1c(Cl)c(C(F)(F)F)nn1-c1cccc(C(=O)N(C)c2ccc3c(c2)OCCO3)c1 , field EC50: < 1000 nM

EC50 in this record for COc1ccc(NC(=O)c2cccc(-n3nc(C)c(Cl)c3C)c2)cc1OC : > 2000 nM

For this molecule ( Cc1c(Cl)c(C(F)(F)F)nn1-c1cccc(C(=O)N(C)c2ccc3c(c2C(=O)O)OCO3)c1 ), measured EC50 is > 2000 nM

* * *

measured_target: mutant CFTR (Homo sapiens, UniProt P13569, DEL508-508)
assay_summary: Fluorescence (HS-YFP) assay for CFTR activity, corrector assay
conditions: CFBE41o- and FRT cells with stable expression of mutant CFTR, 24 h compound treatment
pEC50: −log10 of the molar value.
recorded_endpoint: pEC50

Worked examples follow.
1) CN(C(=O)c1cccc(-n2nc(C(F)(F)F)c(Cl)c2CO[C@H]2CC[C@H](C(=O)O)CC2)c1)c1ccc2c(c1)OC(F)(F)O2 [compound 228] ... > 6.00
2) CN(C(=O)c1cccc(-n2nc(C(F)(F)F)cc2OCC23CC(C(=O)O)(C2)C3)c1)c1ccc2c(c1)OC(F)(F)O2 [compound 255] ... > 6.00
3) Cc1nc2ccc(N(C)C(=O)c3cccc(-n4nc(C(F)(F)F)c(Cl)c4OCc4ccc(C(=O)O)cc4)c3)cc2o1 [compound 198] ... > 6.00
4) COC(=O)c1ccc(COc2cc(C(F)(F)F)nn2-c2cccc(C(=O)N(C)c3ccc4c(c3)OCO4)c2)cc1 [compound 152] ... > 6.00
5) Cc1nc2cc(Cl)c(N(C)C(=O)c3cccc(-n4nc(C(F)(F)F)c(Cl)c4C)c3)cc2o1 [compound 123] ... > 6.00
6) CN(C(=O)c1cccc(-n2nc(C(F)(F)F)cc2OC2CCN(C(=O)CCC(=O)O)CC2)c1)c1ccc2c(c1)OC(F)(F)O2 [compound 264] ... 5.70 to 6.00

Kindly consider the entry below.
For the compound Cc1nn(-c2cccc(C(=O)N(C)c3ccc4c(c3)OCO4)c2)c(C(=O)N(C)C)c1Cl [compound 088] , the measured pEC50 on mutant CFTR (Homo sapiens, UniProt P13569, DEL508-508) was < 5.70

* * *

measured_target: mutant CFTR (Homo sapiens, UniProt P13569, DEL508-508)
Construct: expressed in transfected cells
assay_summary: Fluorescence (HS-YFP) assay for CFTR activity, corrector assay
Format: cell-based
conditions: CFBE41o- and FRT cells with stable expression of mutant CFTR, 24 h compound treatment
pEC50: −log10 of the molar value.
recorded_endpoint: pEC50

Some solved cases for reference:
1. Cc1nn(-c2cccc(C(=O)Nc3ccc4c(c3)COC4)c2)c(C)c1Cl ... < 5.70
2. Cc1c(Cl)c(C(F)(F)F)nn1-c1cccc(C(=O)Nc2ccc3c(c2CO)OCO3)c1 ... < 5.70
3. CC(C)Cc1cc(C(F)(F)F)nn1-c1cccc(C(=O)N(C)c2ccc3c(c2)OCO3)c1 ... > 6.00
4. Cc1nn(-c2cccc(C(=O)Nc3ccc4c(c3)NCCO4)c2)c(C)c1Cl ... < 5.70

Test item Cc1nnc(-c2c(Cl)c(C)nn2-c2cccc(C(=O)N(C)c3ccc4c(c3)OCO4)c2)o1 ; mutant CFTR (Homo sapiens, UniProt P13569, DEL508-508); reported pEC50 was > 6.00

Tested on mutant CFTR (Homo sapiens, UniProt P13569, DEL508-508): Cc1cc(C(=O)O)nn1-c1cccc(C(=O)N(C)c2ccc3c(c2)OCO3)c1 . Observed pEC50: < 5.70

// compound Cc1nn(-c2cccc(C(=O)N(C)c3ccc4c(c3)OCO4)c2)c(C(=O)c2ccccc2)c1Cl , assay mutant CFTR (Homo sapiens, UniProt P13569, DEL508-508), pEC50 value: > 6.00

Param item: Cc1nn(-c2cccc(C(=O)N(C)c3ccc4c(c3)ncn4C)c2)c(C)c1Cl ; param system: mutant CFTR (Homo sapiens, UniProt P13569, DEL508-508); output pEC50: < 5.70
